Ref: ChEMBL document CHEMBL1136671

Numbered stars: 1 amine (or outer) side, 2 acyl side, 3 side chain; on linkers, the order of the positions; unused ones are H or OH. Square brackets hold non-standard residues; d marks the D form. Peptide text beside a SMILES is read from it. NH(CH2CH2O)6CH2CO = O=C(COCCOCCOCCOCCOCCOCCN[*:1])[*:2]; pY = N[C@@H](Cc1ccc(OP(=O)(O)O)cc1)C(=O)O; X1 = O=C(c1ccc(C#CCN[*:1])cc1)[*:2]
Task for the reader: assign each of the following compounds its reported pIC50.
The quantity pIC50 is defined as the negative base-10 logarithm of the molar concentration.

Item CC(=O)N[C@@H](Cc1ccc(OP(=O)(O)O)cc1)C(=O)N[C@H](C(=O)NCC(=O)N[C@@H](CC(C)C)C(=O)NCCOCCOCCOCCOCCOCCOCC(=O)N[C@@H](Cc1ccc(OP(=O)(O)O)cc1)C(=O)N[C@@H](CCC(=O)O)C(=O)N[C@H](C(=O)N[C@@H](CC(C)C)C(N)=O)[C@@H](C)O)[C@@H](C)O (Ac-[pY]TGL[NH(CH2CH2O)6CH2CO][pY]ETL-NH2) with Tyrosine-protein kinase SYK (Homo sapiens) - pIC50?
5.92

Item CC(=O)N[C@@H](Cc1ccc(OP(=O)(O)O)cc1)C(=O)N[C@H](C(=O)NCC(=O)N[C@@H](CC(C)C)C(=O)NCC#Cc1ccc(C(=O)NCC#Cc2ccc(C(=O)N[C@@H](Cc3ccc(OP(=O)(O)O)cc3)C(=O)N[C@@H](CCC(=O)O)C(=O)N[C@H](C(=O)N[C@@H](CC(C)C)C(N)=O)[C@@H](C)O)cc2)cc1)[C@@H](C)O (Ac-[pY]TGL[X1][X1][pY]ETL-NH2) with Tyrosine-protein kinase SYK (Homo sapiens) - pIC50?
7.00

Item CC(=O)N[C@@H](Cc1ccc(OP(=O)(O)O)cc1)C(=O)N[C@H](C(=O)NCC(=O)N[C@@H](CC(C)C)C(=O)NCC(=O)NCC#Cc1ccc(C(=O)NCC(=O)N[C@@H](Cc2ccc(OP(=O)(O)O)cc2)C(=O)N[C@@H](CCC(=O)O)C(=O)N[C@H](C(=O)N[C@@H](CC(C)C)C(N)=O)[C@@H](C)O)cc1)[C@@H](C)O (Ac-[pY]TGLG[X1]G[pY]ETL-NH2) with Tyrosine-protein kinase SYK (Homo sapiens) - pIC50?
4.21

Item CC(=O)N[C@@H](Cc1ccc(OP(=O)(O)O)cc1)C(=O)N[C@@H](CCC(=O)O)C(=O)N[C@H](C(=O)N[C@@H](CC(C)C)C(N)=O)[C@@H](C)O (Ac-[pY]ETL-NH2) with Tyrosine-protein kinase SYK (Homo sapiens) - pIC50?
3.24
